Target: UniProt P14780
Sequence (P14780 whole entry): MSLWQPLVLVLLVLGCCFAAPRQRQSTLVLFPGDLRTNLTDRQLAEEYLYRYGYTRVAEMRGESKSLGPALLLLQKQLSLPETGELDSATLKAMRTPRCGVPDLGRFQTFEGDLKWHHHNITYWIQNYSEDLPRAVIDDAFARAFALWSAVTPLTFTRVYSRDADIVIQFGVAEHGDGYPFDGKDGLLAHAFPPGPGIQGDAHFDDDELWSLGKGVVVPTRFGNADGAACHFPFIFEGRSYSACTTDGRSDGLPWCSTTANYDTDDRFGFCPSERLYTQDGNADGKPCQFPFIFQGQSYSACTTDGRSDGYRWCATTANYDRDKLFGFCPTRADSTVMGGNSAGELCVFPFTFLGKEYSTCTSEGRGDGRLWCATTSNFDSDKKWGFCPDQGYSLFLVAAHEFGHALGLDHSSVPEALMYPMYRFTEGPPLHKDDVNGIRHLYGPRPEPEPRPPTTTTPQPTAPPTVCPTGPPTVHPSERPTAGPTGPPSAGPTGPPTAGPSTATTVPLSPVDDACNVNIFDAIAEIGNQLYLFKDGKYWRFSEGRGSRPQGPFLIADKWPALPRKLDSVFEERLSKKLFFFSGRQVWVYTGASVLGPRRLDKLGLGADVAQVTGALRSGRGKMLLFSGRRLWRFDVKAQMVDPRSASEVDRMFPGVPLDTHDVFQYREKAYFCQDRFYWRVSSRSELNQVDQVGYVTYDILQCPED
Assay: Inhibition of p-aminophenylmercuric acetate activated recombinant human MMP-9 expressed in CHO cells pretreated for 4 hrs followed by Mca-Lys-Pro-Leu-Gly-Leu-Dap(Dnp)-Ala-Arg-NH2 fluorogenic substrate addition measured every 15 secs for 20 mins by fluorimetric assay
IC50 overview
API: value field is a number in nM; no unit string.

Recorded IC50, per entry:
cpdSmiles: CC(C)[C@H](C(=O)NO)N(CCNC(=O)c1cccc(C(=O)NCCN([C@@H](C(=O)NO)C(C)C)S(=O)(=O)c2ccc(-c3ccccc3)cc2)c1)S(=O)(=O)c1ccc(-c2ccccc2)cc1
unitName: nM
resultNumber: 5.5

cpdSmiles: CC(C)ON([C@H](CCNC(=O)CCCNC(=O)c1cccc(C(=O)NCCCC(=O)NCC[C@H](C(=O)NO)N(OC(C)C)S(=O)(=O)c2ccc(-c3ccccc3)cc2)c1)C(=O)NO)S(=O)(=O)c1ccc(-c2ccccc2)cc1
unitName: nM
resultNumber: 38

cpdSmiles: CC(C)[C@H](C(=O)NO)N(CCNC(=O)c1ccccc1)S(=O)(=O)c1ccc(-c2ccccc2)cc1
unitName: nM
resultNumber: 2.5

cpdSmiles: CC(C)[C@H](C(=O)O)N(CCNC(=O)c1cccc(C(=O)NCCN([C@@H](C(=O)O)C(C)C)S(=O)(=O)c2ccc(-c3ccccc3)cc2)c1)S(=O)(=O)c1ccc(-c2ccccc2)cc1
unitName: nM
resultNumber: 26

Now look at this one.
Task: Tell me the measured IC50 of CC(C)[C@H](C(=O)O)N(CCNC(=O)c1cccc(C(=O)NCCN([C@@H](C(=O)N(C)C)C(C)C)S(=O)(=O)c2ccc(-c3ccccc3)cc2)c1)S(=O)(=O)c1ccc(-c2ccccc2)cc1 , please.
Result: 34
